Data credit: paper PMC3967794

- METHOD_SUMMARY: in vivo
- MEASUREMENT_CONDITIONS: male, CD1, mouse, po, 30 mg/kg
RESULT_TYPE: AUC(0-inf) (µM·h)
# unit: µM·h | format: bare number

Give recorded AUC(0-inf). COc1cccc(CNc2ccc(S(=O)(=O)Nc3nc4ccccc4s3)cc2)c1O
38
